System: Staphylococcus aureus, USA 300
*1 amine or outer side, *2 acyl side, *3 side chain or, on linkers, in order; H or OH if unused. Where a SMILES comes first, the peptide text is derived from it. Bridges are numbered along the chain shown (N, C = ends). [ ]: non-standard residue; d: D form. The star is where a group is joined. ξ: configuration not given here. Phe(3,5-F2) = N[C@@H](Cc1cc(F)cc(F)c1)C(=O)O; ξPro(4S-Me) = C[C@@H]1CNC(C(=O)O)C1; NH(4-Et-phenyl) = CCc1ccc(N*)cc1; NH(4-Me-phenyl) = Cc1ccc(N*)cc1; aThr = C[C@H](O)[C@H](N)C(=O)O; X5 = O=C(C1COCCN1[*:1])[*:2]; NMeA = CN[C@@H](C)C(=O)O; CO = O=C([*:1])[*:2]; ξP = O=C(O)C1CCCN1
OBSERVATION TYPE: MIC (µM)

>>> measured("CCc1ccc(NC(=O)N[C@@H](Cc2cc(F)cc(F)c2)C(=O)N[C@@H]2C(=O)N3CCCC3C(=O)N(C)[C@@H](C)C(=O)N[C@@H](C)C(=O)N3C[C@@H](C)CC3C(=O)O[C@H]2C)cc1 (stereo partly drawn) [Compound 30] ({NH(4-Et-phenyl)-CO}-[Phe(3,5-F2)][aThr][ξP][NMeA]A[ξPro(4S-Me)]; ester 2-C)")
0.1
>>> measured("Cc1ccc(NC(=O)N[C@@H](Cc2cc(F)cc(F)c2)C(=O)N[C@@H]2C(=O)N3CCCC3C(=O)N3CCOCC3C(=O)N[C@@H](C)C(=O)N3C[C@@H](C)CC3C(=O)O[C@H]2C)cc1 (stereo partly drawn) [Compound 33] ({NH(4-Me-phenyl)-CO}-[Phe(3,5-F2)][aThr][ξP][X5]A[ξPro(4S-Me)]; ester 2-C)")
0.2

* * *

Biological target: Sa-ClpP (Staphylococcus aureus)
Construct: made in house; host or cells: E. coli BL21(DE3)
Assay: ADEP displacement fluorescence polarization assay (FP probe ADEP 2591)
Format: binding
pIC50: −log10 of the molar value. *1 amine or outer side, *2 acyl side, *3 side chain or, on linkers, in order; H or OH if unused. Where a SMILES comes first, the peptide text is derived from it. Bridges are numbered along the chain shown (N, C = ends). [ ]: non-standard residue; d: D form. The star is where a group is joined. NH(1,3-benzodioxol-5-yl) = c1cc2c(cc1N*)OCO2; Phe(3,5-F2) = N[C@@H](Cc1cc(F)cc(F)c1)C(=O)O; NH(1-Me-indolin-5-yl) = CN1CCc2cc(N*)ccc21; NH(4-OCF3-phenyl) = FC(F)(F)Oc1ccc(N*)cc1; Morpholine(3S-CO) = O=C(O)[C@@H]1COCCN1; Pro(4S-Me) = C[C@@H]1CN[C@H](C(=O)O)C1; Pro(4R-Me) = C[C@H]1CN[C@H](C(=O)O)C1; Hyp = O=C(O)[C@@H]1C[C@@H](O)CN1; NMeT = CN[C@H](C(=O)O)[C@@H](C)O; Heptenoyl(2E) = CCCC/C=C/C(=O)*; NH(4-Me-phenyl) = Cc1ccc(N*)cc1; aThr = C[C@H](O)[C@H](N)C(=O)O; X1 = N#Cc1cc(N*)ccc1F; CO = O=C([*:1])[*:2]
Reported pIC50 is given for each of the following molecules.
OBSERVATION TYPE: pIC50

>>> measured("C[C@H]1C[C@H]2C(=O)O[C@@H](C)[C@H](NC(=O)[C@H](Cc3cc(F)cc(F)c3)NC(=O)Nc3ccc(OC(F)(F)F)cc3)C(=O)N3CCC[C@H]3C(=O)N(C)[C@@H]([C@@H](C)O)C(=O)N[C@@H](C)C(=O)N2C1 [Compound 36] ({NH(4-OCF3-phenyl)-CO}-[Phe(3,5-F2)][aThr]P[NMeT]A[Pro(4S-Me)]; ester 2-C)")
5.19
>>> measured("Cc1ccc(NC(=O)N[C@@H](Cc2cc(F)cc(F)c2)C(=O)N[C@@H]2C(=O)N3CCC[C@H]3C(=O)N3CCOC[C@H]3C(=O)N[C@@H](C)C(=O)N3C[C@H](C)C[C@H]3C(=O)O[C@H]2C)cc1 [Compound 210] ({NH(4-Me-phenyl)-CO}-[Phe(3,5-F2)][aThr]P[Morpholine(3S-CO)]A[Pro(4R-Me)]; ester 2-C)")
5.15
>>> measured("C[C@@H]1C[C@H]2C(=O)O[C@@H](C)[C@H](NC(=O)[C@H](Cc3cc(F)cc(F)c3)NC(=O)Nc3ccc4c(c3)CCN4C)C(=O)N3C[C@H](O)C[C@H]3C(=O)N3CCOC[C@H]3C(=O)N[C@@H](C)C(=O)N2C1 [Compound 315] ({NH(1-Me-indolin-5-yl)-CO}-[Phe(3,5-F2)][aThr][Hyp][Morpholine(3S-CO)]A[Pro(4R-Me)]; ester 2-C)")
4.87
>>> measured("CCCC/C=C/C(=O)N[C@@H](Cc1cc(F)cc(F)c1)C(=O)N[C@@H]1C(=O)N2CCC[C@H]2C(=O)N(C)[C@@H]([C@@H](C)O)C(=O)N[C@@H](C)C(=O)N2C[C@H](C)C[C@H]2C(=O)O[C@H]1C [Compound 308] ({Heptenoyl(2E)}-[Phe(3,5-F2)][aThr]P[NMeT]A[Pro(4R-Me)]; ester 2-C)")
5.36
>>> measured("C[C@@H]1C[C@H]2C(=O)OC[C@H](NC(=O)[C@H](Cc3cc(F)cc(F)c3)NC(=O)Nc3ccc4c(c3)OCO4)C(=O)N3C[C@H](O)C[C@H]3C(=O)N3CCOC[C@H]3C(=O)N[C@@H](C)C(=O)N2C1 [Compound 318] ({NH(1,3-benzodioxol-5-yl)-CO}-[Phe(3,5-F2)]S[Hyp][Morpholine(3S-CO)]A[Pro(4R-Me)]; ester 2-C)")
5.18
>>> measured("C[C@@H]1C[C@H]2C(=O)O[C@@H](C)[C@H](NC(=O)[C@H](Cc3cc(F)cc(F)c3)NC(=O)Nc3ccc(F)c(C#N)c3)C(=O)N3C[C@H](O)C[C@H]3C(=O)N3CCOC[C@H]3C(=O)N[C@@H](C)C(=O)N2C1 [Compound 326] ({X1-CO}-[Phe(3,5-F2)][aThr][Hyp][Morpholine(3S-CO)]A[Pro(4R-Me)]; ester 2-C)")
5.12

* * *

Assay: Cytotoxicity assay (CellTiter-Glo cell viability, 72 hours)
Type: cell-based
Conditions: African green monkey
*1 amine or outer side, *2 acyl side, *3 side chain or, on linkers, in order; H or OH if unused. Where a SMILES comes first, the peptide text is derived from it. Bridges are numbered along the chain shown (N, C = ends). [ ]: non-standard residue; d: D form. The star is where a group is joined. Phe(3,5-F2) = N[C@@H](Cc1cc(F)cc(F)c1)C(=O)O; NH(4-OCF3-phenyl) = FC(F)(F)Oc1ccc(N*)cc1; Morpholine(3S-CO) = O=C(O)[C@@H]1COCCN1; Pro(4S-Me) = C[C@@H]1CN[C@H](C(=O)O)C1; NMeaThr = CN[C@H](C(=O)O)[C@H](C)O; aThr = C[C@H](O)[C@H](N)C(=O)O; CO = O=C([*:1])[*:2]
OBSERVATION TYPE: IC50 at 72 h

>>> measured("C[C@H]1C[C@H]2C(=O)O[C@@H](C)[C@H](NC(=O)[C@H](Cc3cc(F)cc(F)c3)NC(=O)Nc3ccc(OC(F)(F)F)cc3)C(=O)N3CCC[C@H]3C(=O)N3CCOC[C@H]3C(=O)N[C@@H](C)C(=O)N2C1 [Compound 201] ({NH(4-OCF3-phenyl)-CO}-[Phe(3,5-F2)][aThr]P[Morpholine(3S-CO)]A[Pro(4S-Me)]; ester 2-C)")
"26 µM"
>>> measured("C[C@@H]1C[C@H]2C(=O)OC[C@H](NC(=O)[C@H](Cc3ccccc3)NC(=O)Nc3ccc(OC(F)(F)F)cc3)C(=O)N3CCC[C@H]3C(=O)N3CCCC[C@H]3C(=O)N[C@@H](C)C(=O)N2C1 [Compound 205]")
"88.3 µM"
>>> measured("C[C@H]1C[C@H]2C(=O)O[C@@H](C)[C@H](NC(=O)[C@H](Cc3cc(F)cc(F)c3)NC(=O)Nc3ccc(OC(F)(F)F)cc3)C(=O)N3CCC[C@H]3C(=O)N(C)[C@@H]([C@H](C)O)C(=O)N[C@@H](C)C(=O)N2C1 [Compound 203] ({NH(4-OCF3-phenyl)-CO}-[Phe(3,5-F2)][aThr]P[NMeaThr]A[Pro(4S-Me)]; ester 2-C)")
"25.4 µM"

* * *

Target: Sa-ClpP (Staphylococcus aureus, UniProt Q2G036)
Construct: made in house; host or cells: E. coli BL21(DE3)
Test: Casein-BODIPY assay, second described ClpP activation method (EnzCheck Protease Assay, 384 well)
Type: biochemical, S. aureus
Conditions: values marked †: second described ClpP activation assay
pEC50: −log10 of the molar value. *1 amine or outer side, *2 acyl side, *3 side chain or, on linkers, in order; H or OH if unused. Where a SMILES comes first, the peptide text is derived from it. Bridges are numbered along the chain shown (N, C = ends). [ ]: non-standard residue; d: D form. The star is where a group is joined. ξ: configuration not given here. Phe(3,5-F2) = N[C@@H](Cc1cc(F)cc(F)c1)C(=O)O; NH(4-OCF3-phenyl) = FC(F)(F)Oc1ccc(N*)cc1; Pro(4S-Me) = C[C@@H]1CN[C@H](C(=O)O)C1; Pro(4R-Me) = C[C@H]1CN[C@H](C(=O)O)C1; ξPro(4R-OH) = O=C(O)C1C[C@@H](O)CN1; ξPro(4R-Me) = C[C@H]1CNC(C(=O)O)C1; NH(4-Et-phenyl) = CCc1ccc(N*)cc1; NMeT = CN[C@H](C(=O)O)[C@@H](C)O; NH(4-Me-phenyl) = Cc1ccc(N*)cc1; aThr = C[C@H](O)[C@H](N)C(=O)O; NMeA = CN[C@@H](C)C(=O)O; CO = O=C([*:1])[*:2]
OBSERVATION TYPE: pEC50

>>> measured("Cc1ccc(NC(=O)N[C@@H](Cc2cc(F)cc(F)c2)C(=O)N[C@@H]2C(=O)N3C[C@H](O)CC3C(=O)N(C)[C@@H](C)C(=O)N[C@@H](C)C(=O)N3C[C@H](C)CC3C(=O)O[C@H]2C)cc1 (stereo partly drawn) [Compound 31] ({NH(4-Me-phenyl)-CO}-[Phe(3,5-F2)][aThr][ξPro(4R-OH)][NMeA]A[ξPro(4R-Me)]; ester 2-C)")
6.43
>>> measured("C[C@@H]1C[C@H]2C(=O)O[C@@H](C)[C@H](NC(=O)[C@H](Cc3cc(F)cc(F)c3)NC(=O)Nc3ccc(OC(F)(F)F)cc3)C(=O)N3CCC[C@H]3C(=O)N(C)[C@@H]([C@@H](C)O)C(=O)N[C@@H](C)C(=O)N2C1 [Compound 41] ({NH(4-OCF3-phenyl)-CO}-[Phe(3,5-F2)][aThr]P[NMeT]A[Pro(4R-Me)]; ester 2-C)")
6.51
>>> measured("CCc1ccc(NC(=O)N[C@@H](Cc2cc(F)cc(F)c2)C(=O)N[C@@H]2C(=O)N3CCC[C@H]3C(=O)N(C)[C@@H]([C@@H](C)O)C(=O)N[C@@H](C)C(=O)N3C[C@@H](C)C[C@H]3C(=O)O[C@H]2C)cc1 [Compound 37] ({NH(4-Et-phenyl)-CO}-[Phe(3,5-F2)][aThr]P[NMeT]A[Pro(4S-Me)]; ester 2-C)")
6.46
>>> measured("CCc1ccc(NC(=O)N[C@@H](Cc2cc(F)cc(F)c2)C(=O)N[C@@H]2C(=O)N3CCC[C@H]3C(=O)N(C)[C@@H]([C@@H](C)O)C(=O)N[C@@H](C)C(=O)N3C[C@H](C)C[C@H]3C(=O)O[C@H]2C)cc1 [Compound 42] ({NH(4-Et-phenyl)-CO}-[Phe(3,5-F2)][aThr]P[NMeT]A[Pro(4R-Me)]; ester 2-C)")
6.60

The values you see were collected from patent US10457707B2.
